# Test system: SaOS-2-His273
# Experiment Description: Effect of APR-246 on cell viability in cancer cell lines
# Assay type: cell-based
# Condition Parameters: Osteosarcoma SaOS-2-His273, mean±SD
Measurement Type: IC50 (µM)
// return numeric value only (unit: µM, not printed)

Task: Request the reported IC50 associated with COCC1(CO)C(=O)C2CCN1CC2 (stereo not shown) [APR-246]
Result: 14

----------
# Test system: PC3-puro
# Experiment Description: Effect of APR-246 on cell viability in cancer cell lines
# Type: cell-based
# Condition Parameters: Prostate adenocarcinoma PC3-puro, mean±SD
Measurement Type: pIC50
// pIC50 here means minus log10 of the molar concentration (mol/L)

Task: Request the reported pIC50 associated with COCC1(CO)C(=O)C2CCN1CC2 (stereo not shown)
Result: 4.57

----------
# System: SaOS-2
# Experiment Description: Effect of APR-246 on cell viability in cancer cell lines
# Format: cell-based
# Condition Parameters: Homo sapiens, Osteosarcoma SaOS-2, mean±SD
Measurement Type: IC50 (µM)
// return numeric value only (unit: µM, not printed)

Task: Request the reported IC50 associated with COCC1(CO)C(=O)C2CCN1CC2 (stereo not shown)
Result: 27
